molecular target: ERRα ligand binding domain (ERRα-LBD) (Homo sapiens); construct: made in house; host or cells: E. coli; test: ERRα AlphaScreen Assay; format: biochemical; conditions: disruption of binding of ERRα-LBD protein to biotin-PGC1α-3 co-activator peptide; read-out: mean pIC50 (converted)
assay.readout: IC50

### Prompt // Input: COc1cc(-c2cc(=O)[nH]c3n[nH]cc23)ccc1Oc1ccc(Br)cc1C(C)(C)C [Example 70] . Output its IC50 only.
### Response ≤ 10 nM

### Prompt Identify measured IC50 corresponding to COc1cc(Oc2ccc(C3CC(=O)Nc4n[nH]cc43)cc2OC)cc(C(F)(F)F)c1 (centres unmarked) [Example 38]
### Response ≤ 10 nM

### Prompt // fetch IC50 given entry COc1cc(C2CC(=O)Nc3n[nH]cc32)ccc1Oc1cc(C(F)(F)F)cc(C(F)(F)F)c1 (single isomer, unassigned; (+)) [Example 79]
### Response 100 to 1000 nM

### Prompt State its IC50 for this molecule: COc1cc(C2CC(=O)Nc3n[nH]cc32)ccc1Oc1cc(C)cc(C(F)(F)F)c1 (single isomer, unassigned; (+)) [Example 83]
### Response 100 to 1000 nM

### Prompt State, in one line, measured IC50 of COc1ccc(Oc2ccc(-c3cc(=O)[nH]c4n[nH]cc34)cc2OC)c(C(C)(C)C)c1 [Example 68]
### Response ≤ 10 nM

New cases:
### Prompt Consider the molecule COc1cc(C2CC(=O)Nc3n[nH]cc32)ccc1Oc1ccc(C(F)(F)F)cc1C (centres unmarked) [Example 65] and give its recorded IC50.
### Response 100 to 1000 nM

### Prompt Determine from records and report IC50 for COc1cc(C2CC(=O)Nc3n[nH]cc32)ccc1Oc1cccc(C2CC2)c1 (centres unmarked) [Example 31]
### Response 10 to 100 nM

### Prompt Complete the entry with IC50 for COc1cc(C2CC(=O)Nc3n[nH]cc32)ccc1Oc1ccc(C#N)cc1C(F)(F)F (centres unmarked) [Example 2]
### Response 100 to 1000 nM

----------
Each entry below carries its reported IC50.
Target: ERRα ligand binding domain (ERRα-LBD) (Homo sapiens, UniProt P11474)
Construct: made in house; host or cells: E. coli
Assay: ERRα AlphaScreen Assay
Assay type: biochemical
Conditions: disruption of binding of ERRα-LBD protein to biotin-PGC1α-3 co-activator peptide; read-out: mean pIC50 (converted)
Description: This assay was based on the knowledge that nuclear receptors interact with cofactors in a ligand dependent matter. The sites of interaction have been mapped to LXXLL motifs that are present in the co-activator sequences. Short peptide sequences that contain the LXXLL motif mimic the behavior of full length co-activators. […] The AlphaScreen signal was measured using an Envision Xcite plate reader (Perkin Elmer). […]

Before answering, review these 5 worked examples.
### Prompt Provide one value: measured IC50 of COC(=O)c1cc(Oc2ccc(C3CC(=O)Nc4n[nH]cc43)cc2OC)cc(C(F)(F)F)c1 (centres unmarked) [Example 41]
### Response 10 to 100 nM

### Prompt // fetch IC50 given entry CCc1ccccc1Oc1ccc(C2CC(=O)Nc3n[nH]cc32)cc1OC (centres unmarked) [Example 20]
### Response 100 to 1000 nM

### Prompt Annotate the compound COc1cc(C2CC(=O)Nc3n[nH]cc32)ccc1Oc1ccc(C(F)(F)F)cc1 (centres unmarked) [Example 5] with its measured IC50.
### Response 100 to 1000 nM

### Prompt Give reported IC50 value for COc1ccc(Oc2ccc(C3CC(=O)Nc4n[nH]cc43)cc2OC)c(C(C)(C)C)c1 (centres unmarked) [Example 27]
### Response ≤ 10 nM

### Prompt Indicate the recorded IC50 value for this compound: COc1cc(C2CC(=O)Nc3n[nH]cc32)ccc1Oc1ccc(C)cc1C (centres unmarked) [Example 66]
### Response 100 to 1000 nM

More entries:
### Prompt Assign IC50 to the following record: COc1cc(C2CC(=O)Nc3n[nH]cc32)ccc1Oc1ccc(Br)cc1C(C)(C)C (centres unmarked) [Example 33]
### Response ≤ 10 nM

### Prompt Answer with reported IC50 of COC(=O)c1ccc(Oc2ccc(C3CC(=O)Nc4n[nH]cc43)cc2OC)c2ccccc12 (centres unmarked) [Example 36]
### Response ≤ 10 nM

### Prompt Give the measured IC50 for COc1cc(C2CC(=O)Nc3n[nH]cc32)ccc1Oc1ccc(C#N)cc1C(C)(C)C (centres unmarked) [Example 39]
### Response ≤ 10 nM

----------
molecular target: ERRα ligand binding domain (ERRα-LBD) (Homo sapiens, UniProt P11474); construct: made in house; host or cells: E. coli; experiment: ERRα AlphaScreen Assay; assay type: biochemical; conditions: disruption of binding of ERRα-LBD protein to biotin-PGC1α-3 co-activator peptide; read-out: mean pIC50 (converted)
assay.readout: IC50

Example entries and their recorded answers appear below.
### Prompt Please give measured IC50 of the following entry: COc1cc(C2CC(=O)Nc3n[nH]cc32)ccc1Oc1cc(C(F)F)cc(C(F)(F)F)c1 (single isomer, unassigned; (+)) [Example 85]
### Response 100 to 1000 nM

### Prompt Give recorded IC50. COc1cc(C2CC(=O)Nc3n[nH]cc32)ccc1Oc1cccc2c1OC(C)(C)C2 (stereo not shown)
### Response 10 to 100 nM

### Prompt Please list IC50 recorded for the compound COc1cc(C2CC(=O)Nc3n[nH]cc32)ccc1Oc1ccccc1C12CC(C1)C2 (stereo not shown)
### Response 10 to 100 nM

### Prompt In one line, give reported IC50 of the entry COc1cc(C2CC(=O)Nc3n[nH]cc32)ccc1Oc1ccc(C)cc1C(C)(C)C (stereo not shown) .
### Response ≤ 10 nM

### Prompt Read off the recorded IC50 for COc1cc(C2CC(=O)Nc3n[nH]cc32)ccc1Oc1ccccc1C(C)C (stereo not shown)
### Response 10 to 100 nM

### Prompt Identify measured IC50 corresponding to COc1cc(C2CC(=O)Nc3n[nH]cc32)ccc1Oc1ccccc1OC(F)(F)F (stereo not shown)
### Response 10 to 100 nM

### Prompt Give IC50 for the following compound: COc1cc(Oc2ccc(C3CC(=O)Nc4n[nH]cc43)cc2C)cc(C(F)(F)F)c1 (stereo not shown)
### Response 10 to 100 nM

### Prompt Return reported IC50. Input compound: COc1cc(C2CC(=O)Nc3n[nH]cc32)ccc1Oc1cc(C(C)(C)C)cc(C(C)(C)C)c1 (stereo not shown)
### Response 10 to 100 nM

### Prompt Indicate its recorded IC50; the compound in question is COc1cc(C2CC(=O)Nc3n[nH]cc32)ccc1Oc1ccccc1C(C)(C)C (stereo not shown)
### Response 10 to 100 nM

### Prompt Tell me measured IC50 for COC(=O)C1C(=O)Nc2n[nH]cc2C1c1ccc(Oc2cc(C(F)(F)F)cc(C(F)(F)F)c2)c(OC)c1 (stereo not shown) please.
### Response 100 to 1000 nM

More entries:
### Prompt Let me know recorded IC50 for COc1cc(C2CC(=O)Nc3n[nH]cc32)ccc1Oc1ccc(C(C)(C)C)cc1C(C)(C)C (stereo not shown) , thanks.
### Response ≤ 10 nM

### Prompt State its IC50 for this compound: COc1cc(C2CC(=O)Nc3n[nH]cc32)ccc1Oc1cc(C(F)(F)F)cc(C(F)(F)F)c1 (single isomer, unassigned; (-)) [Example 80]
### Response ≤ 10 nM

### Prompt // fetch IC50 given entry COc1cc(-c2cc(=O)[nH]c3n[nH]cc23)ccc1Oc1ccc(C#N)cc1C(F)(F)F
### Response 100 to 1000 nM

### Prompt // fetch IC50 given entry O=C1CC(c2ccc(Oc3ccccc3C(F)(F)F)c(OC(F)(F)F)c2)c2c[nH]nc2N1 (stereo not shown)
### Response 100 to 1000 nM

### Prompt Assign IC50 to the following record: COC(=O)c1ccc(Oc2ccc(C3CC(=O)Nc4n[nH]cc43)cc2OC)c(C(C)(C)C)c1 (stereo not shown)
### Response ≤ 10 nM

### Prompt Answer with reported IC50 of CC(C)(C)c1cc(C#N)ccc1Oc1ccc(C2CC(=O)Nc3n[nH]cc32)cc1 (stereo not shown)
### Response 10 to 100 nM

----------
Molecular target: ERRα ligand binding domain (ERRα-LBD) (Homo sapiens, UniProt P11474)
Construct: made in house; host or cells: E. coli
Sequence (P11474 193-421 limits assumed): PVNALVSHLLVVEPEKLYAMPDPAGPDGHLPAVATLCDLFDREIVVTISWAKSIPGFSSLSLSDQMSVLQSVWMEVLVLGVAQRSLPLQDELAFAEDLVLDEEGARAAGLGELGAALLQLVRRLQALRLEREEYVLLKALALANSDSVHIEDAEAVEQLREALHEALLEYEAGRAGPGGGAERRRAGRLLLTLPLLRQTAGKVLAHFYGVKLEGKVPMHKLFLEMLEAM
Test: ERRα AlphaScreen Assay
Assay type: biochemical
Settings: disruption of binding of ERRα-LBD protein to biotin-PGC1α-3 co-activator peptide; read-out: mean pIC50 (converted)
Description: This assay was based on the knowledge that nuclear receptors interact with cofactors in a ligand dependent matter. The sites of interaction have been mapped to LXXLL motifs that are present in the co-activator sequences. Short peptide sequences that contain the LXXLL motif mimic the behavior of full length co-activators. […] The AlphaScreen signal was measured using an Envision Xcite plate reader (Perkin Elmer). […]
assay.readout: IC50

### Prompt Please look at this compound and report its IC50: COc1cc(Oc2ccc(C3CC(=O)Nc4n[nH]cc43)cc2F)cc(C(F)(F)F)c1 (stereo not shown)
### Response 10 to 100 nM

***
### Prompt # return recorded IC50 for input COc1cc(C2CC(=O)Nc3n[nH]cc32)ccc1Oc1cc(C)cc(C)c1 (stereo not shown) [Example 64]
### Response 10 to 100 nM

### Prompt Write down IC50 measured for item COc1cc(C2CC(=O)Nc3n[nH]cc32)ccc1Oc1ccccc1Cc1ccccc1 (stereo not shown)
### Response 100 to 1000 nM

### Prompt Return reported IC50. Input compound: COc1cc(C2CC(=O)Nc3n[nH]cc32)ccc1Oc1ccc(C(F)(F)F)cc1C(F)F (stereo not shown)
### Response 10 to 100 nM
